EXPERIMENTAL_TARGET: T1, human glucagon receptor (human, UniProt P47871 26-477)
T1 construct: whole, on cells; Assayed as crude membranes of stably transfected HEK293 cells; also called hGcgR; GcgR
T1 sequence (P47871 26-477): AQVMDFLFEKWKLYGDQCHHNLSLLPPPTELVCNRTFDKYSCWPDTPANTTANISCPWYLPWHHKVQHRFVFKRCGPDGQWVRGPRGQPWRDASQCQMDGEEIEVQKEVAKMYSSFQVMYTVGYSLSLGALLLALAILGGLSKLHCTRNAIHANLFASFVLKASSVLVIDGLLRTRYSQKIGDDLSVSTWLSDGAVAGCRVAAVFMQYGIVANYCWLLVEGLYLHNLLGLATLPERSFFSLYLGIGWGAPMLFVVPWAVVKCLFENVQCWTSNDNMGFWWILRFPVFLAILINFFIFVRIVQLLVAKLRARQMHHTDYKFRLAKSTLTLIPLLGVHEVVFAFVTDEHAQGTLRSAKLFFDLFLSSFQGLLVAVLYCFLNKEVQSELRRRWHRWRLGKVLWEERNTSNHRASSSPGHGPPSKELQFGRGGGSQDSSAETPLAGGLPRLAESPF
TEST_DESCRIPTION: SPA, displacement of [125I]-Gcg from hGcgR membranes, 0.1% bacitracin

[
  {
    "BINDER": "YXEGTXISDYSIXLDKKHQXDFVEXLLEGGPSSGAPPPS (Aib2; Iva6; αMeL13; K17((2-[2-(2-Amino-ethoxy)-ethoxy]-acetyl)2-(γ-Glu)-CO-(CH2)18-CO2H); Aib20; 4-Pal25; C-terminal amide) [Example 74]",
    "Ki (nM)": 511
  },
  {
    "BINDER": "YXEGTFISDYSILLDKKAQXDFVNXLLAQGPSSGAPPPS (D-Ala2; K17((2-[2-(2-Amino-ethoxy)-ethoxy]-acetyl)2-(γ-Glu)-CO-(CH2)16-CO2H); Aib20; 4-Pal25; C-terminal amide) [Example 18]",
    "Ki (nM)": 463
  },
  {
    "BINDER": "YXEGTFISDYSILLDKKAQXEFVQWLLAGGPSSGAPPPS (D-Ala2; K17((2-[2-(2-Amino-ethoxy)-ethoxy]-acetyl)2-(γ-Glu)-CO-(CH2)16-CO2H); Aib20; C-terminal amide) [Example 27]",
    "Ki (nM)": 401
  },
  {
    "BINDER": "YXEGTFISDYSILLDKKAQXEFVNWLLEGGPSSGAPPPS (D-Ala2; K17((2-[2-(2-Amino-ethoxy)-ethoxy]-acetyl)2-(γ-Glu)-CO-(CH2)16-CO2H); Aib20; C-terminal amide) [Example 28]",
    "Ki (nM)": 86.8
  }
]

The reported measurements were obtained from patent US20210032299A1.
